Reported values of Percent Effect for individual entries
- system-tested: Coenzyme A biosynthesis bifunctional protein CoaBC (Mycobacterium tuberculosis (strain ATCC 25618 / H37Rv))
- Sequence (whole entry): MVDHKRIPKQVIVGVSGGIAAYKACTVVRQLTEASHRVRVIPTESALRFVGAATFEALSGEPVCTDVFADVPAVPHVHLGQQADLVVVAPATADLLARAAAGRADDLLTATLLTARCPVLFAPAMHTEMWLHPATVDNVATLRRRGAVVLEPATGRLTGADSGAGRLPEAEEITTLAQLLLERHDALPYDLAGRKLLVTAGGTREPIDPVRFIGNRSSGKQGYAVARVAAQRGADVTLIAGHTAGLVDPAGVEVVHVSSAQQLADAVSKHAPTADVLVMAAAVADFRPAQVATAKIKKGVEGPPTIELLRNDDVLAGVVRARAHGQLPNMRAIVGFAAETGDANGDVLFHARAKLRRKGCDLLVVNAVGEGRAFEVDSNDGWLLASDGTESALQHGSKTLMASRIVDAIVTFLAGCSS
- assay-details: Biomol Green assay for MtCoaBC inhibitor, OD650 read
- Assay type: functional
- Design: scale not given: in the data most compounds retested in dose-response had high values
- run-conditions: 30 µM
Screen size: about 67,000 compounds; about 40 (0.06%) showed an effect of 50% or more. Only a selection was taken, and strong results are over-represented in it overall.
Kindly answer with a numeric value in %, unit omitted.

Before answering, review these 6 worked examples.
>>> reported_measurement("Cc1ccc(N2C[C@H]3CCC[C@@H](CN4CCOCC4)[C@H]3C2)nn1")
4.17
>>> reported_measurement("Cc1ccc(CN2CCOCC2c2[nH]ncc2C)cn1 (stereo unspecified)")
-2.47
>>> reported_measurement("CNC(=O)[C@H]1C[C@@H]2CN(C(=O)c3ccncc3)C[C@@H]2N1S(C)(=O)=O")
2.59
>>> reported_measurement("Cc1cn[nH]c1C1COCCN1Cc1ccsc1 (stereo unspecified)")
-1.45
>>> reported_measurement("O=C(C1CCOCC1)N1CCN2C(=O)N(Cc3ccc(F)cc3)C[C@H]2C1")
12
>>> reported_measurement("Cc1cccc(CN2C[C@@H]3OCCN(C)[C@@H]3C2)n1")
4.44

Fill in reported Percent Effect for this entry: COCCC(Cc1cccc(Br)c1)C(N)=O (stereo unspecified)
4.72

Fill in reported Percent Effect for this entry: `CN1C(=O)CO[C@H]2CN(C(=O)Nc3ccc(F)cc3)C[C@H]21`
9.63

Fill in reported Percent Effect for this entry: `Cc1ccc(OCC(=O)N2CCN[C@H]3CS(=O)(=O)C[C@H]32)cn1`
12

Fill in reported Percent Effect for this entry: `O=C1NCCO[C@H]2CN(C(=O)c3cccs3)CC[C@@H]12`
2.96

Fill in reported Percent Effect for this entry: `CCS(=O)(=O)N1C[C@H]2CN(Cc3cccc(F)c3)C(=O)[C@H]2C1`
-7.25
